Target: T1, Nbp2, Q12163
T1 sequence (Q12163 103-180, looked up): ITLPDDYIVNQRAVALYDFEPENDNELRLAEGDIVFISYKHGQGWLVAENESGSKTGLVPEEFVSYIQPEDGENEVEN
Assay: SPOT array
Conditions: median of control spots 357
PROPERTY: SPOT intensity

binder=TYNRTAFQIPGDQSI property="SPOT intensity" result=0
binder=SAPDIPPRSPNRNAH property="SPOT intensity" result=0
binder=DRIRMFIRFPKFLLE property="SPOT intensity" result=52

Input: Can you look up the measured SPOT intensity of `QTREPNEPPPPSPAM` for me?
Output: 0
